- Tested on: BT-549
- assay: NCI tumour cell line growth inhibition, 48 h
Calls of active or inactive are those of the source. Rule as the data show it: active = GI50 up to about 1.1 µM and inactive = higher.
measurement_type: GI50

query: Give GI50; test system BT-549; molecule COC(=O)/C=C\C(C#N)(C#N)/N=C/c1ccc(C)s1
result: 2.83 µM (inactive)

query: Retrieve GI50 on BT-549; query Cc1cn(S(=O)(=O)c2ccccc2)c2c(OCc3ccccc3)cc(NS(C)(=O)=O)cc12
result: 27.6 µM (inactive)

query: // output GI50; input COC(=O)CCC1(O)C=CC(=O)C=C1 ; system BT-549
result: 58.5 µM (inactive)

query: Provide the reported GI50 (system: BT-549) for CCCCN1C(=O)c2c(-c3sccc3N)sc(-c3sccc3N)c2C1=O
result: 29.4 µM (inactive)

query: State GI50 (BT-549) of CC(=O)N1C(C(=O)NNc2ccccc2)CSC1c1ccccc1 (stereo unspecified) .
result: > 100 µM (inactive)

query: Under BT-549: report GI50 of Cc1cn(C2CC(ON3C(=O)c4ccccc4C3=O)C(CO)O2)c(=O)[nH]c1=O (stereo unspecified) .
result: > 10 µM (inactive)

query: Lab note: record GI50 of COC(=O)CCCC(=O)NC1=C(Nc2ccc(OC)cc2)C(=O)c2ccccc2C1=O tested on BT-549.
result: 19.5 µM (inactive)

query: Supply GI50 measured with BT-549 for CCNC(=O)Nc1ccccn1 .
result: > 100 µM (inactive)

query: Enter measured GI50, system BT-549, for the molecule shown: COc1ccc(C=O)cc1OS(=O)(=O)C(F)(F)C(F)(F)C(F)(F)C(F)(F)F
result: 30.2 µM (inactive)

query: State recorded GI50 with BT-549, entry Cn1cc(C2NC(=O)c3ccccc3N2)c2ccccc21 (stereo unspecified) , no comment.
result: > 100 µM (inactive)

query: Output reported GI50 of the molecule CC(=O)OC(CC(C)C)P1(=O)N(CC(C)(C)C)[C@@H]2CCCC[C@H]2N1CC(C)(C)C (stereo partly specified) on BT-549.
result: 15.5 µM (inactive)

----------
- Test system: HOP-92
- assay: NCI tumour cell line growth inhibition, 48 h
Calls of active or inactive are those of the source. No stated cut-off is given here; in the data, active = GI50 up to about 1.1 µM and inactive = higher.
measurement_type: GI50

query: Complete the entry with GI50 for Cc1cccc(C)c1NC(=O)C1C(=O)N(c2c(C)cccc2C)C(=O)/C1=N\NC(N)=S (stereo not given)
result: > 100 µM (inactive)

query: Consider the molecule N#Cc1c(N)n(-c2nc3ccccc3s2)c(=O)c2cc([N+](=O)[O-])ccc12 and give its recorded GI50.
result: 14.1 µM (inactive)

query: Please supply the value of reported GI50 for the item CC(=O)C1C(=O)C(=O)N(c2cccc([N+](=O)[O-])c2)C1=O (stereo not given)
result: > 100 µM (inactive)

query: Determine its reported GI50: CN(C)c1ccc(C2CC(c3ccc4ccccc4c3O)=NN2c2ccc([N+](=O)[O-])cc2[N+](=O)[O-])cc1 (stereo not given)
result: > 100 µM (inactive)

query: Note down GI50 recorded for N#CC1(C#N)C(c2ccc(C3C(C#N)(C#N)C3(C#N)C#N)cc2)C1(C#N)C#N
result: > 100 µM (inactive)

----------
- System: KM12
- assay: NCI tumour cell line growth inhibition, 48 h
The source made the active and inactive calls. Cut-off read from the data, not from the text of the source: active = GI50 up to about 1.1 µM and inactive = higher. Square brackets hold non-standard residues; d marks the D form. Peptide text beside a SMILES is read from it. * marks the point of attachment. X26 = COC1=CC(=O)N(C(=O)[C@@H](O*)C(C)C)[C@H]1Cc1ccccc1; NMeL = CN[C@@H](CC(C)C)C(=O)O; Hexanoyl = CCCCCC(=O)*
measurement_type: GI50

query: Please give measured GI50 of the following entry: Oc1cc(Cl)ncn1
result: > 100 µM (inactive)

query: Return GI50 (reported value) for this compound: CCCCCC(=O)N[C@H](C(=O)N[C@H](C(=O)N(C)[C@@H](CC(C)C)C(=O)N1CCC[C@H]1C(=O)N1CCC[C@H]1C(=O)O[C@H](C(=O)N1C(=O)C=C(OC)[C@@H]1Cc1ccccc1)C(C)C)C(C)C)C(C)C (Hexanoyl-VV[NMeL]PP-X26)
result: > 74.3 µM (inactive)

query: Identify GI50 associated with the compound COC(=O)C1CCC(=O)N1CN(C(C)=O)c1ccccc1 (centres undefined)
result: > 100 µM (inactive)

query: Annotate the compound O=CNc1ccc(S(=O)(=O)c2ccc(NC=O)cc2)cc1 with its measured GI50.
result: > 100 µM (inactive)

----------
- Tested on: MOLT-4
- assay: NCI tumour cell line growth inhibition, 48 h
Activity calls are given as the source filed them. No stated cut-off is given here; in the data, active = GI50 up to about 1.1 µM and inactive = higher.
Could you please report measured GI50 for the items listed next?

query: // Input: Cc1ncc(CO)c(CN)c1O . Output its GI50 only.
result: > 100 µM (inactive)

query: Provide GI50 value for the following compound: O=C(OCC1CO1)c1cccs1 (stereo unspecified)
result: > 100 µM (inactive)

query: State its GI50: CN(C)c1ccc(C2CC(c3ccc4ccccc4c3O)=NN2c2ccc([N+](=O)[O-])cc2[N+](=O)[O-])cc1 (stereo unspecified)
result: 22.8 µM (inactive)

query: Tell me its GI50 given Oc1cc(O)cc(/C=C/c2ccc(O)c(O)c2)c1 as the entry.
result: 5.51 µM (inactive)

query: Provide one value: measured GI50 of Oc1ccc(-c2nc3ccccc3s2)cc1
result: 25.8 µM (inactive)

query: Output GI50 of COc1ccc(/C=N/N=C(\N)NO)c(O)c1
result: > 10 µM (inactive)

----------
- Test system: SF-295
- assay: NCI tumour cell line growth inhibition, 48 h
The source made the active and inactive calls. No stated cut-off is given here; in the data, active = GI50 up to about 1.1 µM and inactive = higher.
Exercise: state measured GI50 for each of the molecules provided.

query: Entry C=C(C)C1CC/C(C)=C/CCC2(C)OC2CC/C(CO)=C\C1O (stereo not given) needs its GI50 filled in; supply it.
result: 40.9 µM (inactive)

query: State its GI50 for this molecule: COc1ccc(C=C2C(C)=NN(c3cccc(Cl)c3)C23C(Cl)C(=O)N3c2nc3ccccc3s2)cc1 (stereo not given)
result: 22.1 µM (inactive)

query: Give me measured GI50, please, for this molecule: Cc1c2c(n(CC(c3ccccc3)c3ccccc3)c1C)NN=C(C#N)S2(=O)=O
result: > 100 µM (inactive)

query: Answer with reported GI50 of COC(=O)CCCC(=O)NC1=C(Nc2ccc(OC)cc2)C(=O)c2ccccc2C1=O
result: 30.4 µM (inactive)

query: For the molecule COC(C(=O)NCCCCNC(=O)C(OC)c1ccccc1)c1ccccc1 (stereo not given) , give its reported GI50.
result: > 100 µM (inactive)

----------
- Test system: NCI-H460
- assay: NCI tumour cell line growth inhibition, 48 h
Activity calls are given as the source filed them. Cut-off read from the data, not from the text of the source: active = GI50 up to about 1.1 µM and inactive = higher. Starred links: 1 amine or outer side, 2 acyl side, 3 side chain; linkers in the order of their positions; H or OH if unused. Positions of bridges follow the written chain, without caps; N, C: chain ends. Non-standard residues stand in square brackets, D forms with d. Residues, ends and D or L forms follow the SMILES beside them. Chains are numbered I, II in the order given. Actinocin(1to9) = Cc1c2oc3c(C)ccc(C(=O)[*:2])c3nc-2c(C(=O)[*:1])c(N)c1=O; aThr = C[C@H](O)[C@H](N)C(=O)O; NMeV = CN[C@H](C(=O)O)C(C)C; Sar = CNCC(=O)O
Form entry, call: pick from active, inactive

query: Recorded call for c1ccc2c3c(c(N4CCNCC4)nc2c1)CCCC3 ?
result: inactive

query: Entry Cc1ccc(S(=O)(=O)Nn2c(C)cc3ccc(S(=O)(=O)Nc4ccccc4[N+](=O)[O-])cc3c2=O)cc1 : call = ?
result: inactive

query: Which outcome was entered for the compound O=C(O)CCC(NC(=O)c1ccc(Nc2nc3cc(C(F)(F)F)ccc3nc2-c2ccccc2)cc1)C(=O)O (stereo unspecified) in this test?
result: inactive

query: Would you mind telling me which call this test gave Cc1ccccc1-c1c(N)nc(N)nc1C(=O)Nc1nccs1 ?
result: inactive

query: Could you please tell me the result logged for COc1ccc2c(c1)[n+]([O-])c(-c1ccccc1Cl)c(N)[n+]2[O-] in this assay?
result: inactive

query: Give the logged outcome of this assay for the following compound: COC1=C2CC(C)CC(OC)[C@@H](OC(=O)CCN)[C@H](C)/C=C(\C)C(OC(N)=O)C(OC)/C=C\C=C(/C)C(=O)NC(=CC1=O)C2=O (stereo partly specified)
result: inactive

query: Which outcome did this test record for the compound CCCCCCCCCCCCCCCCOCC(Cl)COP(=O)(O)OP(=O)(O)OCC1OC(n2cc(C)c(=O)[nH]c2=O)CC1O (stereo unspecified) ?
result: inactive

query: Can you look up the reported call for Cc1ccnc(Nc2[nH]c(C(=O)c3ccc(Cl)cc3)c(N)c2C(=S)Nc2ccccc2)c1 for me?
result: inactive

query: Give the logged outcome of this assay for the following compound: COc1ccc(Oc2ccccc2N)cc1
result: inactive

query: Kindly provide the recorded test outcome for the following compound: Cc1cc(=O)[nH]c(-n2[nH]c3c(c2=O)CCCC3)n1
result: inactive

query: # lookup: test call for CCOC(=O)c1nc2ccc([N+](=O)[O-])cc2c2c1CCO2
result: inactive

query: I would be grateful if you could indicate the recorded call for CC(=O)OC(C)c1cc2c(s1)C(=O)c1c(C(C)OC(C)=O)csc1C2=O (stereo unspecified) .
result: active

query: Tell me the assay call for CN(CC(=O)O)Cc1c[nH]c2ccccc12 please.
result: inactive

query: Hi, do you know how C1=N/CCNCCNCC/N=C/c2ccccc2OCc2cccc(n2)COc2ccccc2/1 came out in this test?
result: inactive

query: Could you please tell me the result logged for CCCCCCCc1c(Cl)nc(Cl)nc1Cl in this assay?
result: inactive

query: Please indicate how the test categorized COC(=O)[C@@]12C3=NO[C@]1(C(=O)OC)C(O[Si](C)(C)C(C)(C)C)[C@H]1OC(C)(C)O[C@H]1[C@@H]2C(OCc1ccccc1)CC3 (stereo partly specified) .
result: inactive

query: What did the test return for COc1ccc(NC(=O)Oc2cc(C)c3ccc(=O)cc-3o2)c(OC)c1.COc1ccc(NC(=O)Oc2ccc3c(C)cc(=O)oc3c2)c(OC)c1 ?
result: inactive

query: For CCN(CC)CCCn1cnc2ncccc2c1=O , which call appears in the assay record?
result: inactive

query: Which outcome was entered for the compound CC1(C)C2CCC1(C)C(N/C(=C(/C(Cl)=C(Cl)Cl)[N+](=O)[O-])n1nnc3ccccc31)C2 (stereo unspecified) in this test?
result: inactive

query: Kindly provide the recorded test outcome for the following compound: CC(C)(CO)CNc1nc(N)nc(Cl)c1C=O
result: inactive

query: Short answer needed: outcome of this test for CCOC(=O)c1c(C)c2c(n1C)CCc1c[nH]nc1-2 ?
result: inactive

query: Each compound tested received a call. Report the one for c1ccc(OCc2nnc3n2N=C(c2ccccc2)CS3)cc1 .
result: inactive

query: How was Cc1nc(Nc2ccc(Cl)cc2)sc1C(=O)NNC(=O)C(=O)NN classified in this test?
result: inactive

query: Hey, what did the test say about Nc1ccc2nc3ccc(=O)cc-3n(-c3ccccc3)c2c1 ?
result: inactive

query: Would you mind telling me which call this test gave COc1ccc2c(c1)-c1nc(=S)n(CCCN(C)C)c3ccc([N+](=O)[O-])c(c13)N2 ?
result: active

query: Hello, I am checking results. What call was entered for C=CCNC1=C2C[C@@H](C)C[C@@H](OC)[C@H](OC(=O)CCCCN)[C@H](C)/C=C(\C)[C@@H](OC(N)=O)[C@H](OC)/C=C\C=C(/C)C(=O)NC(=CC1=O)C2=O ?
result: inactive

query: Query: recorded result category for CC1=C(C(=O)Nc2ccccc2)C(c2cc(Cl)cc(Cl)c2)C(C(=O)Nc2ccccc2)=C(C)N1 in this test
result: inactive

query: Entry Nc1ncnc2c1ncn2CC(O)C(=O)O (stereo unspecified) : call = ?
result: inactive

query: Lab log entry: Cc1c2oc3c(C)ccc(C(=O)N[C@@H]4C(=O)N[C@H](C(C)C)C(=O)N5CCC[C@H]5C(=O)N(C)CC(=O)N(C)[C@@H](C(C)C)C(=O)O[C@H]4C)c3nc-2c(C(=O)N[C@@H]2C(=O)N[C@H](C(C)C)C(=O)N3CCC[C@H]3C(=O)N(C)CC(=O)N(C)[C@@H](C(C)C)C(=O)O[C@H]2C)c(N)c1=O (I: [aThr][dV]P[Sar][NMeV] / II: [aThr][dV]P[Sar][NMeV]; ester I:1-I:C, II:1-II:C; linker I:N-II:N via Actinocin(1to9)) — outcome as called in the assay?
result: active

query: Test call for this compound, please: C=CC(=O)N1C/C(=C\c2ccccc2)C(=O)/C(=C/c2ccccc2)C1
result: inactive

query: Answer briefly: the call reported for Nc1c(-c2ccc(Br)cc2)[n+]([O-])c2ccccc2[n+]1[O-] in this assay.
result: inactive

query: Outcome logged for Cc1ccc2c(c1C)CC1(Cc3c(C)ccc(C)c3C1=O)C2=O (stereo unspecified) in this assay:
result: inactive

query: For COc1ccc(-c2c(C3=NCCCN3)nnn2-c2ccc([N+](=O)[O-])cc2)cc1 , which call appears in the assay record?
result: inactive

query: Identify the outcome logged in this assay for the compound shown: C/C(=C/CNc1ncnc2c1ncn2CCC#N)CO
result: inactive

query: Please let me know the test result on file for Cc1ccc(N2C(=O)/C(=C/c3ccc(N(CCC#N)CCC#N)cc3)N=C2COc2ccc(Cl)cc2Cl)cc1 .
result: inactive

query: For Cn1/c(=N\S(=O)(=O)c2ccccc2)[nH]c2ccccc21 , which call appears in the assay record?
result: inactive
